# IC50 per record follows
target: human TYRO3 (455-end) (Homo sapiens); construct: TYRO3 (455-end); purchased SignalChem, Canada; assay: HTRF kinase activity biochemical assay, TYRO3; settings: 10 μM ATP, 30 minutes pre-incubation; read-out: HTRF TYRO IC50
Sequence (Q06418 455-890 limits assumed): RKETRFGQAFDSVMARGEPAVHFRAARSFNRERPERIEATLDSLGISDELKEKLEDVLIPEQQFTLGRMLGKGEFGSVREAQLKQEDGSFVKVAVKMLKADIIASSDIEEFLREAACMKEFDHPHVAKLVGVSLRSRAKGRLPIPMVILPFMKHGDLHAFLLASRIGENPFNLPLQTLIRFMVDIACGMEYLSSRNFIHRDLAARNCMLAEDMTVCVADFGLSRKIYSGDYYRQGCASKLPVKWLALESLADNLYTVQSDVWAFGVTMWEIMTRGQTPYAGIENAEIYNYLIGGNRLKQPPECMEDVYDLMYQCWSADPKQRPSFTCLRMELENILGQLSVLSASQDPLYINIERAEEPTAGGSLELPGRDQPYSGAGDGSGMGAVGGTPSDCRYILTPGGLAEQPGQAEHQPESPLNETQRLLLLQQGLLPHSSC

The following compounds have reported results that may help.
# COMPOUND, SYSTEM NAME, IC50
measured = [
    ("Cn1cc(-c2cnc(N)c(C(=O)N[C@H]3CCC[C@@H]3OCc3ccc(-c4ccc5[nH]ccc5c4)cc3)c2)cn1", "human TYRO3 (455-end) (Homo sapiens)", "100 to 1000 nM"),
    ("Cn1cc(-c2cnc(N)c(C(=O)N[C@H]3CCC[C@@H]3OCc3ccc(-c4ccc5c(N6CCN(CCO)CC6)coc5c4)cc3)c2)cn1", "human TYRO3 (455-end) (Homo sapiens)", "> 1000 nM"),
    ("Cn1cc(-c2cnc(N)c(C(=O)N[C@H]3CCC[C@@H]3OCc3ccc(-c4ccc5c(c4)NC(=O)C5N4CCN(CCO)CC4)cc3)c2)cn1 (stereo partly drawn)", "human TYRO3 (455-end) (Homo sapiens)", "> 1000 nM"),
    ("Cn1cc(-c2cnc(N)c(C(=O)N[C@H]3CCC[C@@H]3OCc3ccc(-c4ccc5c(c4)C(C)(C)CCC5N4CCN(CCO)CC4)cc3)c2)cn1 (stereo partly drawn)", "human TYRO3 (455-end) (Homo sapiens)", "10 to 100 nM"),
    ("Cn1ccc(-c2cnc(N)c(C(=O)N[C@H]3CCC[C@@H]3OCc3ccc(-c4ccc5c(c4)C(C)(C)CN5C4CCN(CCO)CC4)cc3)c2)cc1=O", "human TYRO3 (455-end) (Homo sapiens)", "10 to 100 nM"),
]

Proceeding to the next compound to report its IC50.
Which IC50 is reported with human TYRO3 (455-end) (Homo sapiens) for this entry: Nc1ncc(-c2ccc(F)nc2)cc1C(=O)N[C@H]1CCC[C@@H]1OCc1ccc(-c2ccc3c(c2)C2(CC2)CN(C2CCN(CCO)CC2)C3)cc1 ? > 1000 nM
